From: patent US20190248900A1

measurement target: T1, PD1-hFc (human, UniProt Q15116 25-170)
T1 construct: extracellular domain; also called PD1-hFc protein; Human PD-1-Fc (S1420, Y-Biologics)
experiment notes: competition ELISA: PD1-Fc coated, PDL1-His as binder, antibody as competitor
endpoint: IC50
Could you write the number and then its unit?

Sample answers from the record:
>  <binder>
PD1-49A2 (antibody, V domains shown, scFv-phage in the screening ELISA; whole IgG in the other assays; also called Parent 49A2) VH: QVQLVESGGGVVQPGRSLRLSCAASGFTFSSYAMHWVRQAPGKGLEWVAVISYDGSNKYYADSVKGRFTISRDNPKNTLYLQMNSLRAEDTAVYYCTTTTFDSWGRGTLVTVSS VL: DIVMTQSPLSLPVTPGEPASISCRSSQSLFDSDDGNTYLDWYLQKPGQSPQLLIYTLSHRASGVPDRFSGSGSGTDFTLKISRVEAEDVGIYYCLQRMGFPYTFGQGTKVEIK

>  <IC50>
3.92 nM

$$$$
>  <binder>
PD1-45D6(A/5B2) (antibody, V domains shown, scFv-phage in the screening ELISA; whole IgG in the other assays; also called 45D6-5B2; PD1 45D6 5B2) VH: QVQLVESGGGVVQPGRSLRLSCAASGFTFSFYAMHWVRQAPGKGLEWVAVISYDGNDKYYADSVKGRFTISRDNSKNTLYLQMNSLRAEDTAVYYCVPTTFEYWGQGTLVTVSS VL: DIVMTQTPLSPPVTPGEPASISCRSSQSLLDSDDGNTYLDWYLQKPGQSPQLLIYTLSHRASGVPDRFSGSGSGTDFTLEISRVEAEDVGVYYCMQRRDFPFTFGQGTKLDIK

>  <IC50>
3.09 nM

$$$$
>  <binder>
PD1-49A2(A/2B9) (antibody, V domains shown, scFv-phage in the screening ELISA; whole IgG in the other assays; also called 49A2-2B9; 49A2 (2B9)) VH: QVQLVESGGGVVQPGRSLRLSCAASGFTFLRYAMHWVRQAPGKGLEWVAVISYDGRYKYYADSVKGRFTISRDNSKNTLYLQMNSLRAEDTAVYYCTTTTFDSWGQGTLVTVSS VL: DIVMTQTPLSLPVTPGEAASISCRSSQSLLDSEDGNTYLDWYLQKPGQSPQLLIYTLSHRASGVPDRFSGSGSGTDFTLEISRVEAEDVGVYYCMQRRDFPFTFGQGTKVDIK

>  <IC50>
6.38 nM

$$$$

# context switch: different binder, same IC50
## Task What IC50 value was documented for this binder, PD1-62E1 (antibody, V domains shown) VH: QVQLVESGGDLVKPGRSLRLSCTGSGFTFGDHPLTWVRQIPGKGLEWVGFIRSKAYGETTEYAASVKGRFTISRDDSKSIAYLQMNSLRAEDTAVYYCASVSYCSGGSCYQGTFDYWGQGTLVTVSS VL: DIQMTQSPAILSLSPGERATLSCRASQSVTSDVAWYQHIRGQAPRLLIYDASNRASGIPARFSGGGSGTEFTLTISSLEPEDFAVYYCQQYNNWPLTFGGGTKVEIK ?
## Result 2.89 nM
